# protocol.details: High temperature test (stability study)
# Format: physicochemical
# assay.context: 0 days
quantity.name: Purity (%)
Give just the numeric value; % need not be written.

Prompt: Specify reported Purity (%) for the molecule shown: COC(=O)C1=C(CN2CCOC[C@H]2C(=O)O)N=C(c2nccs2)N[C@H]1c1ccc(F)cc1Cl.O=C(O)C(O)C(O)C(=O)O
Response: 99.85

Prompt: Specify reported Purity (%) for the molecule shown: COC(=O)C1=C(CN2CCOC[C@H]2C(=O)O)NC(c2nccs2)=N[C@H]1c1ccc(F)cc1Cl
Response: 97.54

Prompt: Specify reported Purity (%) for the molecule shown: COC(=O)C1=C(CN2CCOC[C@H]2C(=O)O)N=C(c2nccs2)N[C@H]1c1ccc(F)cc1Cl.Cl
Response: 99.63

Prompt: Specify reported Purity (%) for the molecule shown: Br.COC(=O)C1=C(CN2CCOC[C@H]2C(=O)O)N=C(c2nccs2)N[C@H]1c1ccc(F)cc1Cl
Response: 99.70

Where do these numbers come from? They come from patent US10098889B2.
